Sourced from ChEMBL document CHEMBL4673253

biological target: Mu-type opioid receptor (Homo sapiens, UniProt P35372); assay: Agonist activity at human MOR expressed in CHOK1 cells assessed as […] of cAMP accumulation incubated for 45 mins by HTRF assay
Sequence (P35372 whole entry): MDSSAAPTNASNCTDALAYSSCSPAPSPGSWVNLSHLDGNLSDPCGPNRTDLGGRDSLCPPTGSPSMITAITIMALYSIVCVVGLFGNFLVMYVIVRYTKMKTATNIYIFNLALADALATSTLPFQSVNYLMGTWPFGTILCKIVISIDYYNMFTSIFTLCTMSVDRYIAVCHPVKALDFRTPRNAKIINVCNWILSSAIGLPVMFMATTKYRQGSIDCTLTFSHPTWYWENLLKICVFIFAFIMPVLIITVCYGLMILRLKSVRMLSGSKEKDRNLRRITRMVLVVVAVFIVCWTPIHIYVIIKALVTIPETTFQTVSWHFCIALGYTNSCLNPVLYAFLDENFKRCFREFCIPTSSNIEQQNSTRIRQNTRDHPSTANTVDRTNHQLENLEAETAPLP
REPORTED_ENDPOINT: pEC50
Friendly reminder that pEC50 comes from taking -log10 of the concentration in mol/L.

Worked cases, pEC50 given:
> print(dat)
                                   molecule                          target.or.system  reported.endpoint  endpoint.value
1  CC1OC2(CCN(CCc3ccccc3)CC2)CN(C)C1=O (configuration not stated)  Mu-type opioid receptor (Homo sapiens, UniProt P35372)              pEC50            6.10
2  CC[C@H]1OC2(CCN(CCc3ccccc3)CC2)CN(C)C1=O  Mu-type opioid receptor (Homo sapiens, UniProt P35372)              pEC50            6.30
3    CN1CC2(CCN(CCc3ccccc3)CC2)OC2(CC2)C1=O  Mu-type opioid receptor (Homo sapiens, UniProt P35372)              pEC50            6.35
4  CCN1CC2(CCN(CCc3ccccc3)CC2)O[C@H](C)C1=O  Mu-type opioid receptor (Homo sapiens, UniProt P35372)              pEC50            7.31
5  CC1OC2(CCN(CCc3ccccc3)CC2)CN(C(C)C)C1=O (configuration not stated)  Mu-type opioid receptor (Homo sapiens, UniProt P35372)              pEC50            7.68

GET /value?item= `C[C@H]1OC2(CCN(CCc3ccccc3)CC2)CN(C)C1=O` &field=pEC50 returns 6.50

pEC50 measured on `CCN1CC2(CCN(CCc3ccc(F)cc3)CC2)O[C@H](C)C1=O` = 6.97

For `C[C@H]1OC2(CCN(CCc3ccccc3)CC2)CN(C2CC2)C1=O` the molecule record lists pEC50 as 8.15

pEC50 for `CCN1CC2(CCN(CCc3c(F)cccc3F)CC2)O[C@H](C)C1=O` is 7.80

Record summary for CC(C)C1OC2(CCN(CCc3ccccc3)CC2)CN(C)C1=O (configuration not stated) : reported pEC50 = 6.76

Notebook: `CCN1CC2(CCN(CCc3cccc(F)c3F)CC2)O[C@H](C)C1=O` , pEC50 read as 8.00

Kindly note the recorded pEC50 for `CCN1CC2(CCN(CCc3ccc(F)cc3F)CC2)O[C@H](C)C1=O` , which is 7.28

Briefly, pEC50 measured for CCN1CC2(CCN(CCc3ccccc3)CC2)OC(C)C1=O (configuration not stated) : 7.19

Sure, the documented pEC50 for CC1OC2(CCN(CCc3ccccc3)CC2)CN(CCc2ccccc2)C1=O (configuration not stated) is 7.66

Sure, the documented pEC50 for `CCN1CC2(CCN(CCc3cccc(F)c3)CC2)O[C@H](C)C1=O` is 7.25

* * *

Molecular target: Alpha-1A adrenergic receptor (Homo sapiens)
Sequence (whole entry): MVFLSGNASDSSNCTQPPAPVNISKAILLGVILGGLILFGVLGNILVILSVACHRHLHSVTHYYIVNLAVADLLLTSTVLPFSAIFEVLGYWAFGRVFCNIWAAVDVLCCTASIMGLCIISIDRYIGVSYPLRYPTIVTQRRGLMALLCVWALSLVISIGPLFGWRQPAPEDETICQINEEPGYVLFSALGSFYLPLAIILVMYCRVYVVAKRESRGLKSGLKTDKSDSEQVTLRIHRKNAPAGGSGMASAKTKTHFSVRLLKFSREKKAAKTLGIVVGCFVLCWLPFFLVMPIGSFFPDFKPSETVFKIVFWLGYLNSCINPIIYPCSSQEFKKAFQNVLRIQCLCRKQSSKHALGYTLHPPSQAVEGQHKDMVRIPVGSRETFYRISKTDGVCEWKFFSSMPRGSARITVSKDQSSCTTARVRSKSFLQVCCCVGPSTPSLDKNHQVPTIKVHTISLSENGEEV
Assay: Binding affinity to human alpha1A adrenoreceptor expressed in membranes assessed as inhibition of [3H]-prazosin binding incubated for 90 mins by scintillation counting method
Set-up: concentration or dose not given beside the values
Conditions: Cell membrane
REPORTED_ENDPOINT: inhibition (%)
Response body: numeric value in %, unit text excluded.

> print(dat)
                                   compound  reported.endpoint  unit.abbrev  endpoint.value
1  CCN1CC2(CCN(CCc3c(F)cccc3F)CC2)O[C@H](C)C1=O         inhibition            %              10

// sample `CN1CC2(CCN(CCc3ccccc3)CC2)OC(C)(C)C1=O` , its inhibition was 37

Measured inhibition, `CCN1CC2(CCN(CCc3ccccc3)CC2)O[C@H](C)C1=O` : 14

Data point: `CN1CC2(CCN(CCc3ccccc3)CC2)OC2(CC2)C1=O` ; inhibition = 41

Measured inhibition of `C[C@H]1OC2(CCN(CCc3ccccc3)CC2)CN(C2CC2)C1=O` : 51

Note to self: inhibition recorded for `CCN1CC2(CCN(CCc3ccc(F)cc3F)CC2)O[C@H](C)C1=O` was 11

Query `C[C@@H]1OC2(CCN(CCc3ccccc3)CC2)CN(C)C1=O` yields inhibition of 6

For this compound ( `CCN1CC2(CCN(CCc3ccccn3)CC2)OC2(CC2)C1=O` ), measured inhibition is 0

For this compound ( `CCN1CC2(CCN(CCc3cc(F)ccc3F)CC2)O[C@H](C)C1=O` ), measured inhibition is 21

get_value(item= CC1OC2(CCN(CCc3ccccc3)CC2)CN(c2ccccc2)C1=O (stereo unspecified) , readout=inhibition) returns 72

The measured inhibition associated with `C[C@H]1OC2(CCN(CCc3ccccc3)CC2)CN(C)C1=O` reads 19

* * *

target: Mu-type opioid receptor (Homo sapiens)
REPORTED_ENDPOINT: pKi
Please report pKi as the negative decimal logarithm of the molar concentration, giving only the number.

Consider the reported pKi for these molecules:
> print(dat)
                                   molecule  reported.endpoint  endpoint.value
1   C[C@H]1OC2(CCN(CCc3ccccc3)CC2)CN(C)C1=O                pKi            7.04
2  CC[C@H]1OC2(CCN(CCc3ccccc3)CC2)CN(C)C1=O                pKi            6.72
3  CCN1CC2(CCN(CCc3ccccc3)CC2)OC(C)C1=O (stereo unspecified)                pKi            7.39

Reported Mu-type opioid receptor (Homo sapiens) pKi for item CC1OC2(CCN(CCc3ccccc3)CC2)CN(C(C)C)C1=O (stereo unspecified) was 7.48

Sample CC1OC2(CCN(CCc3ccccc3)CC2)CN(CCc2ccccc2)C1=O (stereo unspecified) , system: Mu-type opioid receptor (Homo sapiens). Its pKi is 7.70

pKi of `CCN1CC2(CCN(CCc3cccc(F)c3)CC2)O[C@H](C)C1=O` , assay on Mu-type opioid receptor (Homo sapiens), is 7.25

Tested system Mu-type opioid receptor (Homo sapiens); pKi recorded for `CCN1CC2(CCN(CCc3cccc(F)c3F)CC2)O[C@H](C)C1=O` was 7.66

Item `C[C@H]1OC2(CCN(CCc3ccccc3)CC2)CN(C2CC2)C1=O` was tested on Mu-type opioid receptor (Homo sapiens); the reported pKi is 8.22

Noted pKi for `CCN1CC2(CCN(CCc3ccc(F)cc3)CC2)O[C@H](C)C1=O` , tested on Mu-type opioid receptor (Homo sapiens): 6.79

* * *

target: CYP2C19 (Homo sapiens); assay: Inhibition of human CYP2C19 at 1 uM relative to control; type: ADME
Sequence (P33261 whole entry): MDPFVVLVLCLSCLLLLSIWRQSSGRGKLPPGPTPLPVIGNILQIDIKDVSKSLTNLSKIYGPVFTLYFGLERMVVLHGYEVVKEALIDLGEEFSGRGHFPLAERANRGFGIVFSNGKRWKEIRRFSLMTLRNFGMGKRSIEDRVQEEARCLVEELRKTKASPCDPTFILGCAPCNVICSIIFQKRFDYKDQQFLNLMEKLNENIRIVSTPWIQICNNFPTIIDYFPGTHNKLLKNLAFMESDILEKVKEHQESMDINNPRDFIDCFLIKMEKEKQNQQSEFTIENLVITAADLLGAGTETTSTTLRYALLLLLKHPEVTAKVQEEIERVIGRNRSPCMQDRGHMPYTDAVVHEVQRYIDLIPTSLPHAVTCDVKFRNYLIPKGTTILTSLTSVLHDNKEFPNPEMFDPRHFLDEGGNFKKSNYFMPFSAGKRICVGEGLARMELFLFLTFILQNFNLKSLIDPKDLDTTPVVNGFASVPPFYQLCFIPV
REPORTED_ENDPOINT: inhibition at 1 µM

Given item `CCN1CC2(CCN(CCc3cc(F)ccc3F)CC2)O[C@H](C)C1=O` , the value recorded as its inhibition at 1 µM is < 50%

* * *

The reader will find reported Emax values listed item by item below.
target: Mu-type opioid receptor (Homo sapiens); assay: Agonist activity at human MOR expressed in CHOK1 cells assessed as […] of cAMP accumulation incubated for 45 mins by HTRF assay relative to DAMGO; format: functional, cell-based; settings: CHO-K1, filed as agonist
Supply the numeric figure in %, leaving out any unit text.

> print(dat)
                                   compound  endpoint.value
1  CC1OC2(CCN(CCc3ccccc3)CC2)CN(c2ccccc2)C1=O (stereo unspecified)              85

Entry `CN1CC2(CCN(CCc3ccccc3)CC2)OC2(CC2)C1=O` , Emax reported as 85

Given item CCN1CC2(CCN(CCc3ccccc3)CC2)OC(C)C1=O (stereo unspecified) , the value recorded as its Emax is 84

Emax in this record for `CCN1CC2(CCN(CCc3ccc(F)cc3F)CC2)O[C@H](C)C1=O` : 92

Short answer for CC1OC2(CCN(CCc3ccccc3)CC2)CN(C(C)C)C1=O (stereo unspecified) : Emax was 100

Briefly, Emax measured for `CCN1CC2(CCN(CCc3c(F)cccc3F)CC2)O[C@H](C)C1=O` : 95

The compound listed as `CCN1CC2(CCN(CCc3ccccc3)CC2)O[C@H](C)C1=O` shows Emax equal to 83

The compound `CC[C@H]1OC2(CCN(CCc3ccccc3)CC2)CN(C)C1=O` showed Emax equal to 90

Measured Emax of CC(C)C1OC2(CCN(CCc3ccccc3)CC2)CN(C)C1=O (stereo unspecified) : 85

Record summary for CC1OC2(CCN(CCc3ccccc3)CC2)CN(C)C1=O (stereo unspecified) : reported Emax = 79

# compound `CCN1CC2(CCN(CCc3cccc(F)c3)CC2)O[C@H](C)C1=O` ; its Emax = 83
